MEASURE: melting point

Example entries begin here.
>>> df
                                   compound  observed_result
0          O=c1c2c(c3cccnc3n1-c1ccccc1)SCC2    277 to 279 °C
1                 O=C1CCN(Cc2cccnc2)C(=O)C1      55 to 60 °C
2  O=C(Cl)CC1(c2ccccc2)C(=O)Oc2ccc(Cl)cc21 (stereo unspecified)           107 °C
3  COC(=O)C(Cc1ccc(OCCc2nc(-c3ccccc3)oc2C)cc1)C(=O)N(C)C (stereo unspecified)    114 to 115 °C
4  CCCCOc1ccc(NC(=O)c2cnc(C(=O)O)c(OC)c2)cc1    128 to 130 °C
5  C=CCN1CCN(c2ncc3c(=O)c(C(=O)OCC)cn(CC)c3n2)CC1           131 °C

Output melting point of Cc1ccc(C(C)C)c(OCCN(C)Cc2c(C)c(O)c(C)c(C)c2OCCO)c1
115 to 118 °C

Output melting point of CCOP(=O)(CC(N)=S)OCC
73 to 75 °C

Output melting point of CCOC(=O)C(O)=Cc1ncc(CCc2ccc(F)cc2)cn1
133 to 134 °C

Output melting point of CCOCc1nc2c(N)nc(C)c(C)c2n1CCC1CCN(C(=O)C(C)C)CC1
168 to 169 °C

Output melting point of OCCC(CCO)c1ccccn1
44 °C

* * *

# Lookup of reported melting point keyed by entry

Example entries begin here.
                                   molecule        measure  observed_result
0          Fc1cccc(Nc2nc(Cl)nc3nc[nH]c23)c1  melting point         > 250 °C
1  CCCOc1cc2c(cc1C(C)c1ccc(OC)cc1)OCO2 (stereo not given)  melting point            84 °C
2  CC(=O)Nc1ccccc1C(=O)NCCN1[C@H](C)Cc2ccsc2[C@@H]1C (relative stereo)  melting point    108 to 112 °C
3  CC(C)c1ccc(CCC(O)CC2CCCCC2)cc1NC(=O)CC1c2ccccc2Oc2ccccc21 (stereo not given)  melting point    144 to 145 °C
4  COC(C)CC(=O)NC1CCC(CCN2CCN(c3nccc4c3CCO4)CC2)CC1 (stereo not given)  melting point           167 °C
5            COC(=O)Cc1ccc([N+](=O)[O-])cc1  melting point      45 to 46 °C
6         Cc1oc(-c2ccco2)nc1COc1ccc(C#N)cn1  melting point    105 to 106 °C
7            Oc1ccc(Sc2nnc3cc(Cl)ccc3n2)cc1  melting point           238 °C

Output melting point of CN1C(=O)CN(N=Cc2ccccc2)C1=O
253 to 255 °C

Output melting point of O=C1CN(C(=O)CN2CC(c3ccc(Cl)cc3)CC2=O)CCN1 (stereo not given)
205 to 207 °C

* * *

# Lookup of reported melting point keyed by entry

>>> print(df.to_string())
                                   compound  observed_result
0  CC[C@@H](c1ccccc1)N(Cc1ccc(C(=O)OC)cc1)S(=O)(=O)c1ccc(Cl)cc1    108 to 110 °C
1  Nc1nccn2c(C3CCC3)nc(-c3cccc(OCc4ccccc4)c3F)c12      88 to 89 °C
2                O=S(=O)(Cl)Oc1cccc2cnccc12    152 to 155 °C
3  CC(=O)Nc1cnn2c1-c1ccccc1N(C(C)=O)C2C (stereo not given)    218 to 220 °C

Read the next record carefully.
Output melting point of CN1CCN(c2nn(C(=O)c3ccccc3)c3ccc(Cl)cc23)CC1
105 to 107 °C

* * *

MEASURE: melting point

Example entries begin here.
>>> df
                                   compound  observed_result
0  O=C(O)C1=Cc2cc(Cl)cnc2NC1C(F)(F)F (configuration not stated)    287 to 288 °C
1                       Cc1cc(=S)cc(C)n1CCN    162 to 164 °C
2  Nc1nn(-c2c(Cl)cc(C(F)(F)F)cc2Cl)cc1C1CC1(Br)Br (configuration not stated)    125 to 126 °C
3  CC1(C)CC(=O)c2c(Nc3ccccc3)cn(-c3ccccn3)c2C1    135 to 138 °C
4   COC(=O)c1ccc(CN2CCN(c3nc(C)cs3)C2=O)cc1    157 to 158 °C

Read the next record carefully.
Output melting point of CSCc1nc2c(N)nc3ccccc3c2n1Cc1ccccc1
217 to 219 °C

* * *

# Lookup of reported melting point keyed by entry

Example entries begin here.
>>> df
                                   molecule  observed_result
0  Nc1nc(-c2cc(Cl)ccc2Cl)nc(N2CCC(Cc3ccccc3)CC2)n1    159 to 161 °C
1  CNC(=O)COc1cc(-n2c(=O)cc(C(F)(F)F)n(C)c2=O)c(F)cc1Cl    190 to 192 °C
2  O=C(CCc1ccccc1Cl)Nc1c(Cl)ccc2nc(N3CC[C@H](NCCO)C3)ccc12    180 to 182 °C
3  CC(NC(=O)C1=C(C(=O)Nc2cc(OC3CCCC3)c(Cl)cc2F)CCCC1)c1cccc2ccccc12 (centres undefined)    198 to 201 °C
4  COc1cc(S(=O)(=O)c2ccccc2)ccc1[N+](=O)[O-]    128 to 130 °C
5  O=S1(=O)c2cccc3cccc(c23)N1CCCN1CC=C(c2c[nH]c3ccccc23)CC1           226 °C
6  O=C(O)CCCCCCCCNC(=O)C1Cc2ccccc2N1S(=O)(=O)c1ccc(-c2cccc(C(F)(F)F)c2)cc1 (centres undefined)            60 °C
7                      COC(=O)c1sccc1C(C)=O      59 to 60 °C

Output melting point of CN1CCC(OC2c3ccccc3CCn3c(I)cnc32)CC1 (centres undefined)
163 °C

* * *

# Lookup of reported melting point keyed by entry

Example entries begin here.
>>> print(df.to_string())
                                   compound  observed_result
0  COC(=O)C(Cc1ccccc1)NC(=O)C(CC(=O)O)NC(=O)CC(C)=O (stereo not given)    118 to 121 °C
1  COC(=O)c1cccc2nc(OCC(F)(F)F)n(Cc3ccc(-c4ccccc4C#N)cc3)c12    143 to 145 °C
2        Fc1ccc2[nH]c3c4c(Cl)cccc4nc-3cc2c1    201 to 204 °C
3           O=[N+]([O-])c1cc2c(Cl)ncnc2cc1F    116 to 118 °C
4              CC(C)(C)Oc1ccc(O)c(C(=O)O)c1           282 °C

Output melting point of CC(CCCCCc1nc(-c2ccc(Cl)cc2)c(-c2ccc(Cl)cc2)o1)c1nnn[nH]1 (racemic)
144 °C

Output melting point of COc1cc(-n2cc[nH]c2=O)c(Cl)cc1Cn1nc(-c2ccc(C(F)(F)F)cc2)oc1=O
201 to 202 °C

* * *

MEASURE: melting point

>>> df
                               smiles_input  observed_result
0  FC(F)(F)c1cccc(CSc2nnc(-c3ccn4ncnc4c3)o2)c1    147 to 148 °C
1  C=CCCn1c2ccc(OC)cc2c2c3c(c(-c4ccccc4Cl)cc21)C(=O)N(Cc1ccc(OC)cc1OC)C3=O    161 to 164 °C
2  O=C(Nc1nccs1)c1nc(-c2cccc3ccccc23)[nH]c1-c1ccc(C(F)(F)F)cc1    222 to 223 °C

Read the next record carefully.
Output melting point of CN(C)N=Nc1cc([N+](=O)[O-])sc1C(=O)O
184 to 186 °C

* * *

# Lookup of reported melting point keyed by entry

Example entries begin here.
                                   compound        measure  observed_result
0            O=[N+]([O-])c1ccc(O)c(COCCO)c1  melting point           132 °C
1  COc1ccc2nccc(NC(=O)C3CCN(CCc4cnc5ccccc5n4)CC3)c2n1  melting point           170 °C
2  CCCCOc1c(CNC(=O)OC(C)(C)C)n(CC(C)C)c(=O)c2ccc(NC(=O)OCC3c4ccccc4-c4ccccc43)cc12  melting point    137 to 138 °C
3      O=c1oc2ccccc2n1-c1ccccc1[N+](=O)[O-]  melting point    153 to 155 °C
4  CCCc1c(C(=O)C(C)C)c2ccc(C(=O)NO)cc2n1Cc1ccccc1Cl  melting point    185 to 186 °C

Output melting point of O=C1CCC(N2Cc3c(OCc4ccc5ncc(CN6CCOCC6)n5c4)cccc3C2=O)C(=O)N1 (stereo not given)
170 to 172 °C

Output melting point of CN(C)c1ccc(CC(CS)C(=O)Nc2cccc(C(=O)O)c2)cc1 (stereo not given)
91 to 93 °C

Output melting point of O=C(O)c1cc(-c2ccc(C(F)(F)F)cc2)nc(C(F)(F)F)c1
204 to 205 °C

Output melting point of CN(C)C1CCN(c2cc3ccc(Br)cc3c(=O)[nH]2)CC1
227 to 228 °C

Output melting point of CC(=O)NC(C)(C)c1ccc(CO)cc1
126 to 129 °C
